# System: obesity and metabolic diseases-related genes in visceral fat tissue
# protocol.summary: RT-PCR of obesity and metabolic diseases-related genes, visceral fat tissue
# Assay type: in vivo, mouse
# test.context: odor component-supplemented group to the HFD control group
Collected UCP3 gene expression, increase (change rate) values appear next to each entry.
readout: UCP3 gene expression, increase (change rate) (% increase^)

>>> print(df.to_string())
                                   molecule  recorded_value
0  O=C(/C=C/C=C/c1ccc2c(c1)OCO2)N1CCCCC1 [piperine]              75
1     OCc1c[nH]c2ccccc12 [indol-3-carbinol]              72
2  CC(=O)O[C@]1(C)CC[C@@]23C[C@@H]1C(C)(C)[C@@H]2CC[C@H]3C [cedryl acetate]              65
3  C/C=C1/[C@H](O[C@@H]2O[C@H](CO)[C@@H](O)[C@H](O)[C@H]2O)OC=C(C(=O)OC)[C@H]1CC(=O)OCCc1ccc(O)c(O)c1 [oleuropein]              82

----------
# Tested on: obesity and metabolic diseases-related genes in visceral fat tissue
# protocol.summary: RT-PCR of obesity and metabolic diseases-related genes, visceral fat tissue
# Assay type: in vivo, mouse
# test.context: odor component-supplemented group to the HFD control group
readout: TNFα gene expression, decrease (change rate) (% decrease)

>>> print(df.to_string())
                                   compound  reading_unit  recorded_value
0  C/C=C1/[C@H](O[C@@H]2O[C@H](CO)[C@@H](O)[C@H](O)[C@H]2O)OC=C(C(=O)OC)[C@H]1CC(=O)OCCc1ccc(O)c(O)c1 [oleuropein]    % decrease              66
1  O=C(/C=C/C=C/c1ccc2c(c1)OCO2)N1CCCCC1 [piperine]    % decrease              75
2  CC(=O)O[C@]1(C)CC[C@@]23C[C@@H]1C(C)(C)[C@@H]2CC[C@H]3C [cedryl acetate]    % decrease              99
3     OCc1c[nH]c2ccccc12 [indol-3-carbinol]    % decrease              23

Hey, just so you know, these numbers are from patent US10167507B2.
